This section presents compounds with their documented GFP ratio to DMSO values.
# Test system: YCL064C
# TEST DESCRIPTION: TOR pathway GFP reporter clone modulation in yeast – S. cerevisiae, GFP-tagged clone panel, flow cytometry (AID 504473);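 also: median GFP fluorescence of the cells measured by high-throughput flow cytometry; test concentration not given here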
# TEST CONDITIONS: S. cerevisiae GFP-tagged strains, 3 h
Lab note: record the figure alone, no unit after it.

Known results for compounds:
MOL SMILES	GFP ratio to DMSO
CO[C@H]1C[C@@H]2CC[C@@H](C)[C@@](O)(O2)C(=O)C(=O)N2CCCC[C@H]2C(=O)O[C@H]([C@H](C)C[C@@H]2CC[C@@H](O)[C@H](OC)C2)CC(=O)[C@H](C)/C=C(\C)[C@@H](O)[C@@H](OC)C(=O)[C@H](C)C[C@H](C)/C=C/C=C/C=C/1C	1.28
CNc1nc(N)c([N+](=O)[O-])c(Nc2cccc(Cl)c2)n1	0.902
CNc1nc(N)c([N+](=O)[O-])c(Nc2ccccc2)n1	0.878

Input CNc1nc(N)c([N+](=O)[O-])c(Nc2ccccc2OC)n1 . Output GFP ratio to DMSO: 0.707

Input CNc1nc(N)c([N+](=O)[O-])c(Nc2cccc(F)c2)n1 . Output GFP ratio to DMSO: 1.15

From: PubChem BioAssay AID504473
